Target: FBXL10 (Homo sapiens, UniProt Q8NHM5)
Sequence (Q8NHM5 whole entry): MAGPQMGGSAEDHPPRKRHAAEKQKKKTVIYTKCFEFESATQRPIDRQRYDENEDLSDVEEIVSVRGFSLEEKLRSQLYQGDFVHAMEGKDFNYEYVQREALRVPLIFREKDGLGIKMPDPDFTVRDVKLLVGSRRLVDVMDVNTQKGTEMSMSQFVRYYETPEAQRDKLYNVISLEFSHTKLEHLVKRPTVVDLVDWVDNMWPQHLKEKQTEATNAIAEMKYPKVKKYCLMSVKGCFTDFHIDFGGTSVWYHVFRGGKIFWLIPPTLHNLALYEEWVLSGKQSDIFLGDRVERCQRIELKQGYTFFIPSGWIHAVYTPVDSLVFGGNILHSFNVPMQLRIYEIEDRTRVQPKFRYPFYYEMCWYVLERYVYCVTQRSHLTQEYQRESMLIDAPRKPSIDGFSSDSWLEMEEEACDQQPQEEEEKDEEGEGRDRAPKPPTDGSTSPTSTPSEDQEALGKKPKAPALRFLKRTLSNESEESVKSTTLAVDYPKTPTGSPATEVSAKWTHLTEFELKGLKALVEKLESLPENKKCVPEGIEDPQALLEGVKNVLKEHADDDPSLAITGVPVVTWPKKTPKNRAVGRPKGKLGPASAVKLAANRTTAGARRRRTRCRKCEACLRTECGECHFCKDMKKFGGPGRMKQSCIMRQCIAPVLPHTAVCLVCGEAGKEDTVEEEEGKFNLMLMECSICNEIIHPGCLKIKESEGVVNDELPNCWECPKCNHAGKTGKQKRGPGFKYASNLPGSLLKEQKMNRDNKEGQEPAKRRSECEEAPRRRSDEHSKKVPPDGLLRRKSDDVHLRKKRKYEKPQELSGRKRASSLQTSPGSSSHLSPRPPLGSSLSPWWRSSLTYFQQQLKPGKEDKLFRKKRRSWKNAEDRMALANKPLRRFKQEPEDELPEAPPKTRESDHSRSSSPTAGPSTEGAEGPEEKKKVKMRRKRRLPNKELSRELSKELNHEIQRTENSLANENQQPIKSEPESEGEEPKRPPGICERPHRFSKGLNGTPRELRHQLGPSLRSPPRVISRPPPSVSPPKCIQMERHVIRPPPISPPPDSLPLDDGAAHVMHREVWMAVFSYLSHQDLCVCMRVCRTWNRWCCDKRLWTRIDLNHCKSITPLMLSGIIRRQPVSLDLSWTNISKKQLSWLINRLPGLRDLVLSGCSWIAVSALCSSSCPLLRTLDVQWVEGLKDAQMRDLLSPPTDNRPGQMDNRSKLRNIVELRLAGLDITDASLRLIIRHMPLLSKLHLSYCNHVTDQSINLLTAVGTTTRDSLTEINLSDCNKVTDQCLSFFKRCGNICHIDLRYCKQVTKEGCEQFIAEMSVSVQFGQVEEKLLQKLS
Property name: pIC50
// field semantics: pIC50 = negative decimal log of concentration (mol/L)

Briefly, pIC50 measured for `COc1cc2nc(-c3ccc(C)o3)cc(NCC3CCN(c4ncc(C(=O)NO)cn4)CC3)c2cc1OC` : 5.17

----------
Experiment: Pharmacokinetic study in plasma samples
Assay type: in vivo, mouse
Conditions: RAG-2, mouse, plasma, ip; 10 mg/kg i.p., mice, NCA; read-out: Norm. Cl/F (converted)
Documented CL/F across a set of compounds
# output: bare number, implied unit L/h/kg

> print(dat)
                            molecule.smiles  measured
1  COc1cc2nc(-c3cc(C)oc3C)cc(NCC3CCN(c4ncc(C(=O)NO)cn4)CC3)c2cc1OC      10.4

# next compound below
Briefly, CL/F measured for `COc1cc2nc(-c3ccc(C)o3)cc(NCC3CCN(c4ncc(C(=O)NO)cn4)CC3)c2cc1OC` : 21.3

----------
Documented CD11b (%) Replicate 3 across a set of compounds
Tested on: HL-60
Experiment: Differentiation-apoptosis assay, CD11b / annexin-V / Sytox Green / myeloid markers flow cytometry
Format: cell-based, human
Details: HL-60, daily 25% GI50, 48 h
Experimental: Next, the cells were washed twice with phosphate-buffered saline (PBS) and resuspended in 1X Binding Buffer at a concentration of 1 × 10^6 cells/mL. […] Finally, after the addition of 400 µL of 1X Binding Buffer to each tube, samples were collected on a BD FACSCanto flow cytometer (Becton Dickinson, San Jose, CA, USA) and analyzed using FlowJo software. Then, 1 million cells (volume of 250 µL) were added and incubated for 30 min at room temperature in darkness. […]
# output: bare number, implied unit %

Some compounds with known CD11b (%) Replicate 3 results, for comparison:
> print(dat)
                                   compound          property.name  unit.abbrev  measured
1  COc1cc2nc(-c3ccc(C)o3)cc(NCC3CCN(c4ncc(C(=O)NO)cn4)CC3)c2cc1OC [CM-444]  CD11b (%) Replicate 3            %     76.65
2  COc1cc2c(cc1OCCCN1CCCC1)N=C(N)C21CCC1 [Compound A-366, A-366, reference compound]  CD11b (%) Replicate 3            %      4.85
3  COc1cc2c(NC3CCN(C)CC3)cc(-c3ccc(C)o3)nc2cc1OCCCN1CCCC1 [CM-272]  CD11b (%) Replicate 3            %      0.44
4  COc1cc2nc(-c3cc(C)oc3C)cc(NCC3CCN(c4ncc(C(=O)NO)cn4)CC3)c2cc1OC [CM-1758]  CD11b (%) Replicate 3            %     67.15

# next compound below
Reported CD11b (%) Replicate 3 (HL-60) for entry Cc1[nH]c2ccccc2c1CCNCc1ccc(/C=C/C(=O)NO)cc1 [Panobinostat, reference compound] is 12.38

----------
Tested on: ML-2
Assay: Acetylome analysis (Acetyl-K enrichment, LC-MS/MS)
Format: cell-based, human
Conditions: Fig 4G
Documented Acetyl-K sites regulated, Number, Non-histone proteins across a set of compounds
Just the number, please, no unit attached.

Some compounds with known Acetyl-K sites regulated, Number, Non-histone proteins results, for comparison:
> print(dat)
                                   compound  target.under.test  measured
1  O=C(CCCCCCC(=O)Nc1ccccc1)NO [Vorinostat, reference compound]               ML-2       469
2  Cc1[nH]c2ccccc2c1CCNCc1ccc(/C=C/C(=O)NO)cc1 [Panobinostat, reference compound]               ML-2       587
3  COc1cc2nc(-c3cc(C)oc3C)cc(NCC3CCN(c4ncc(C(=O)NO)cn4)CC3)c2cc1OC [CM-1758]               ML-2       681

Briefly, Acetyl-K sites regulated, Number, Non-histone proteins measured for COc1cc2nc(-c3ccc(C)o3)cc(NCC3CCN(c4ncc(C(=O)NO)cn4)CC3)c2cc1OC [CM-444] : 766

----------
List of pIC50 tested on HDAC4 (Homo sapiens).
Sequence (P56524 whole entry): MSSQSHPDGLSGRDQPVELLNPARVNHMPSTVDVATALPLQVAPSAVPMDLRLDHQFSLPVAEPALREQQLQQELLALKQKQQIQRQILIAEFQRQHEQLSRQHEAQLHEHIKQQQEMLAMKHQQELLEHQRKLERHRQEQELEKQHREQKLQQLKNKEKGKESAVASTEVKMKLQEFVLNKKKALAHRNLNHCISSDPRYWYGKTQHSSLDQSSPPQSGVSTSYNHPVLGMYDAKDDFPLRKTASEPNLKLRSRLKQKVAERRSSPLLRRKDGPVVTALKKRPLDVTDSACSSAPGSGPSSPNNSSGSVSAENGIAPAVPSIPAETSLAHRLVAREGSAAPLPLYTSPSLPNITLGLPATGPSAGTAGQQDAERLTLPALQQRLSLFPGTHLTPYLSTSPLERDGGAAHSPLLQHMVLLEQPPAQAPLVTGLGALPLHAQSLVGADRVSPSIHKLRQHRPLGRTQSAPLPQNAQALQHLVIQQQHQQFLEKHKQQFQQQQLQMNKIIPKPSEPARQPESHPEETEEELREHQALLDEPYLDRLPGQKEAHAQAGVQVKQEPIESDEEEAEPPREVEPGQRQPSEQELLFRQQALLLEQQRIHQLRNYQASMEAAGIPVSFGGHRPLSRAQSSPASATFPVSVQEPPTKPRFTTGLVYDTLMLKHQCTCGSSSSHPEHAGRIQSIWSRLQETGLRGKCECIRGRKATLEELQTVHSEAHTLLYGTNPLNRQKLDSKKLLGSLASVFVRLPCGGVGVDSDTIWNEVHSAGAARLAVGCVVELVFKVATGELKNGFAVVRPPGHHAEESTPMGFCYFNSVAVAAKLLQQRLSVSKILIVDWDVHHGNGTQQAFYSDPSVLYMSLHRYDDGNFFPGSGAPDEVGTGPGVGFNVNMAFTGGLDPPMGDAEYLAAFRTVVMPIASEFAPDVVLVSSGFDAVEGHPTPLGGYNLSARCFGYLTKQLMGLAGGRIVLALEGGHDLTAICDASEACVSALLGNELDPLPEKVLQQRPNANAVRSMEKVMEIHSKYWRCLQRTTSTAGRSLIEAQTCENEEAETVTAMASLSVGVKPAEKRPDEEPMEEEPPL
// field semantics: pIC50 = negative decimal log of concentration (mol/L)

> print(dat)
                                   molecule  measured
1  COc1cc2nc(-c3cc(C)oc3C)cc(NCC3CCN(c4ncc(C(=O)NO)cn4)CC3)c2cc1OC [CM-1758]      6.89

Briefly, pIC50 measured for COc1cc2nc(-c3ccc(C)o3)cc(NCC3CCN(c4ncc(C(=O)NO)cn4)CC3)c2cc1OC [CM-444] : 7.21

----------
Molecular target: HDAC2 (Homo sapiens)
Sequence (Q92769 whole entry): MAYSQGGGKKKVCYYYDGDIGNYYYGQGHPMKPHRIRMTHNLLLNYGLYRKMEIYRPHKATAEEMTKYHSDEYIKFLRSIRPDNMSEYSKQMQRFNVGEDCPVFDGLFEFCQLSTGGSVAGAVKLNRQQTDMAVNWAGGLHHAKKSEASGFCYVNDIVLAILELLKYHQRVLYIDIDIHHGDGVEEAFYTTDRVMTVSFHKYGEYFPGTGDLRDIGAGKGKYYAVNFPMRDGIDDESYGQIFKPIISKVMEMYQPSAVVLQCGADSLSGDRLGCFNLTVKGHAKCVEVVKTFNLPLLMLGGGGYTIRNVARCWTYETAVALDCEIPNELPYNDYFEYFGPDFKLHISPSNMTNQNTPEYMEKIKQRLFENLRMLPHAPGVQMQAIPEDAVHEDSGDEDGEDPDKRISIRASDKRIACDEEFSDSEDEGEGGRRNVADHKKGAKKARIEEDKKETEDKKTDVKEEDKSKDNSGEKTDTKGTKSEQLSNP
Property name: pIC50
// field semantics: pIC50 = negative decimal log of concentration (mol/L)

Reported pIC50 (HDAC2 (Homo sapiens)) for entry COc1cc2nc(-c3cc(C)oc3C)cc(NCC3CCN(c4ncc(C(=O)NO)cn4)CC3)c2cc1OC [CM-1758] is 7.51

Reported pIC50 (HDAC2 (Homo sapiens)) for entry COc1cc2nc(-c3ccc(C)o3)cc(NCC3CCN(c4ncc(C(=O)NO)cn4)CC3)c2cc1OC [CM-444] is 7.29

----------
Assay: Cytotoxicity (LC50)
Format: cell-based
Conditions: human, THLE-2 cells (immortalized liver cell line, ATCC CRL-2706)
Property name: CC50

> print(dat)
                            molecule.smiles  measured
1  COc1cc2nc(-c3cc(C)oc3C)cc(NCC3CCN(c4ncc(C(=O)NO)cn4)CC3)c2cc1OC    779 nM

# next compound below
Briefly, CC50 measured for `COc1cc2nc(-c3ccc(C)o3)cc(NCC3CCN(c4ncc(C(=O)NO)cn4)CC3)c2cc1OC` : 794 nM

----------
Documented IC50 across a set of compounds
Molecular target: HDAC11 (Homo sapiens, UniProt Q96DB2)
Sequence (Q96DB2 whole entry): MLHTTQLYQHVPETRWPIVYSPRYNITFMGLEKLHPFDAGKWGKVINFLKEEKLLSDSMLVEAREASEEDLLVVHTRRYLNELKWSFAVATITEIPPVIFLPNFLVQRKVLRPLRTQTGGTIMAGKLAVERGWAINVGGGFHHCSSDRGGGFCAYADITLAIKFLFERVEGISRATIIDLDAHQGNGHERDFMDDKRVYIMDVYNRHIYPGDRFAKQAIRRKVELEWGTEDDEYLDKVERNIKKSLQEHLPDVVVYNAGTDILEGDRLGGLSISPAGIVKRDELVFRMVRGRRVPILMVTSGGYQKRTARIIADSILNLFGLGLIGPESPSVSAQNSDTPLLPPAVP
Assay: HDAC11 Eurofins assay
Format: biochemical
# output: bare number, implied unit µM

> print(dat)
                            molecule.smiles                      target.under.test  measured
1  COc1cc2nc(-c3ccc(C)o3)cc(NCC3CCN(c4ncc(C(=O)NO)cn4)CC3)c2cc1OC  HDAC11 (Homo sapiens, UniProt Q96DB2)      0.14

# next compound below
Briefly, IC50 measured for `COc1cc2nc(-c3cc(C)oc3C)cc(NCC3CCN(c4ncc(C(=O)NO)cn4)CC3)c2cc1OC` : 0.15

----------
Sequence of the target: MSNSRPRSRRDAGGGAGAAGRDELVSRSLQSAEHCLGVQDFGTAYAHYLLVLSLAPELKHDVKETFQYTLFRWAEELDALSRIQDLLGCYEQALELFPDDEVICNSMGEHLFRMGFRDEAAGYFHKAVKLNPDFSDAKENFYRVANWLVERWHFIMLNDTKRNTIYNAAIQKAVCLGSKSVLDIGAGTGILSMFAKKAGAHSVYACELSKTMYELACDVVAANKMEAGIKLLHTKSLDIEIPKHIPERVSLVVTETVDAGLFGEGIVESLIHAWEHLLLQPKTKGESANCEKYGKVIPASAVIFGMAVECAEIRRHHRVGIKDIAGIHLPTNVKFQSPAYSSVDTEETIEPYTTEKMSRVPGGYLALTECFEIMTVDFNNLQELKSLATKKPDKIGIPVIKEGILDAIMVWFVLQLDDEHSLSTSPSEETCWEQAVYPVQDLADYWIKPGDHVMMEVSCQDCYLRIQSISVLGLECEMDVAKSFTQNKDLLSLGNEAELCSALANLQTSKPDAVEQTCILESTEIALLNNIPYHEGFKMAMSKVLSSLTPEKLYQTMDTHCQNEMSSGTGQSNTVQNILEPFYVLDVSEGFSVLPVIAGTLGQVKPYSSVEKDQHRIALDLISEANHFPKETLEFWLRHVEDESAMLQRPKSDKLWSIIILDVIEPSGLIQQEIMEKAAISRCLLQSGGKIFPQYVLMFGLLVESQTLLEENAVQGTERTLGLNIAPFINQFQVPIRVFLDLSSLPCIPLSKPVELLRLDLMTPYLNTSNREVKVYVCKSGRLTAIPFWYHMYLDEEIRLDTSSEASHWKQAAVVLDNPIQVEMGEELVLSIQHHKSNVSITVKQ
Property name: pIC50
// field semantics: pIC50 = negative decimal log of concentration (mol/L)

> print(dat)
                            molecule.smiles  measured
1  COc1cc2nc(-c3ccc(C)o3)cc(NCC3CCN(c4ncc(C(=O)NO)cn4)CC3)c2cc1OC      4.72

# next molecule below
Briefly, pIC50 measured for `COc1cc2nc(-c3cc(C)oc3C)cc(NCC3CCN(c4ncc(C(=O)NO)cn4)CC3)c2cc1OC` : 4.64
